- System: Flp-In T-REx 293 cells expressing delta-E Torsin1a
- assay: Cytotoxicity (cell count, cellular morphology) in the Torsin1a assay cell line
- Format: cell-based, human
- condition-info: Table 6
- Description: In order to test this model directly, the delta-E Torsin1a cell line was treated with compounds targeting the eIF2-alpha signaling pathway (FIG. 2). […] Efficacy is calculated as the magnitude of the pathology correction relative to the mutant Torsin1a pathology. […]
Structures can show the parent of a compound that is named as a salt.
recorded-endpoint: Cytotox Max Resp
Answers are plain numbers.

For orientation, consider the following solved cases.
compound | assay-system | Cytotox Max Resp
CS(=O)(=O)O.Cc1c(O)cccc1C(=O)N[C@@H](CSc1ccccc1)[C@H](O)CN1C[C@H]2CCCC[C@H]2C[C@H]1C(=O)NC(C)(C)C.O [Nelfinavir mesylae hydrate] | Flp-In T-REx 293 cells expressing delta-E Torsin1a | −95.64
Cc1c(O)cccc1C(=O)N[C@@H](CSc1ccccc1)[C@H](O)CN1C[C@H]2CCCC[C@H]2C[C@H]1C(=O)NC(C)(C)C | Flp-In T-REx 293 cells expressing delta-E Torsin1a | −97.72
Cc1cccc(C)c1OCC(=O)N[C@@H](Cc1ccccc1)[C@@H](O)C[C@H](Cc1ccccc1)NC(=O)[C@H](C(C)C)N1CCCNC1=O | Flp-In T-REx 293 cells expressing delta-E Torsin1a | −55.19
Cc1cccc(C)c1OCC(=O)NC(CCC(Cc1ccccc1)NC(=O)C(C(C)C)N1CCCNC1=O)Cc1ccccc1 (centres unmarked) [Des-hydroxy Lopinavir] | Flp-In T-REx 293 cells expressing delta-E Torsin1a | −66.67

Alright, here's another compound for you.
(Q) Please look up its Cytotox Max Resp: CC(C)(C)NC(=O)[C@@H]1CN(Cc2cccnc2)CCN1C[C@@H](O)C[C@@H](Cc1ccccc1)C(=O)N[C@H]1c2ccccc2C[C@H]1O [Indinavir sulfate]
(A) −67.80
